Where these numbers come from: the domain aggregation screens of Martell et al. (2025)

experiment: soluble fraction after stress (log2 fold change); higher = more stays soluble; pooled small domains, quantitative proteomics; conditions: stress: pH 4
Parameter measured: soluble fraction (log2)
// keep it numeric: no unit symbol after the value

Some sequences with known soluble fraction (log2) results, for comparison:
Provide only the value of recorded soluble fraction (log2) for HMLPRNKRIEIALTYIYGLGRHAATVVLKHANISPDKRTDDLDENDVRKLRDAIDANFRVEGDLRR
-0.0555

Supply soluble fraction (log2) value. Item: HMTESIKRDEAIRLNNGRIYTLDAAKIGTNEYEVMLFNPRTGEEIDSAKTSTEADAILQFDRLRRMYHR
-0.151

---
Hello, please tell me recorded soluble fraction (log2) for this one: HMSPSLVEAMRLRMYEMGLNQAKLSELLGVSPSRVSDYLTGRSEPTLKVARDISRKLNIDASIVLG
-0.0682
